Reported values of Humidity % for individual entries
Assay: Residual humidity of the powder
Assay type: physicochemical
Settings: Test in Mobile Minor unit; IN/OUT temperature differs per test
Numbers only; they are read as %.

Worked cases, Humidity % given:
C[S+](CC[C@H](N)C(=O)[O-])C[C@H]1O[C@@H](n2cnc3c(N)ncnc32)[C@H](O)[C@@H]1O.O=S(=O)(O)CCCCS(=O)(=O)O (single isomer, unassigned) [Example 3, SAMe 1,4-butanedisulphonate]; 1.63
C[S+](CC[C@H](N)C(=O)[O-])C[C@H]1O[C@@H](n2cnc3c(N)ncnc32)[C@H](O)[C@@H]1O.O=S(=O)(O)CCCCS(=O)(=O)O (single isomer, unassigned) [Example 5, SAMe 1,4-butanedisulphonate]; 1.88
C[S+](CC[C@H](N)C(=O)[O-])C[C@H]1O[C@@H](n2cnc3c(N)ncnc32)[C@H](O)[C@@H]1O.O=S(=O)(O)CCCCS(=O)(=O)O (single isomer, unassigned) [Example 4, SAMe 1,4-butanedisulphonate]; 1.63

Now for a further compound.
What value of measured Humidity % is listed for C[S+](CC[C@H](N)C(=O)[O-])C[C@H]1O[C@@H](n2cnc3c(N)ncnc32)[C@H](O)[C@@H]1O.O=S(=O)(O)CCCCS(=O)(=O)O (single isomer, unassigned) [Example 7, SAMe 1,4-butanedisulphonate, reference compound] ? 2.65
